Every entry's value here was drawn from patent US20070197512A1.

target: human URAT1 (Homo sapiens); construct: Human URAT1 full length cDNA was subcloned to expression vector pcDNA3.1; assay: Uric acid transport inhibitory test using human URAT1-expressing cells; settings: human URAT1-expressing HEK293 cells, 14C-uric acid 50 μM, uptake 5 min, room temperature; read-out: hURAT1 IC50
Sequence (Q96S37 whole entry): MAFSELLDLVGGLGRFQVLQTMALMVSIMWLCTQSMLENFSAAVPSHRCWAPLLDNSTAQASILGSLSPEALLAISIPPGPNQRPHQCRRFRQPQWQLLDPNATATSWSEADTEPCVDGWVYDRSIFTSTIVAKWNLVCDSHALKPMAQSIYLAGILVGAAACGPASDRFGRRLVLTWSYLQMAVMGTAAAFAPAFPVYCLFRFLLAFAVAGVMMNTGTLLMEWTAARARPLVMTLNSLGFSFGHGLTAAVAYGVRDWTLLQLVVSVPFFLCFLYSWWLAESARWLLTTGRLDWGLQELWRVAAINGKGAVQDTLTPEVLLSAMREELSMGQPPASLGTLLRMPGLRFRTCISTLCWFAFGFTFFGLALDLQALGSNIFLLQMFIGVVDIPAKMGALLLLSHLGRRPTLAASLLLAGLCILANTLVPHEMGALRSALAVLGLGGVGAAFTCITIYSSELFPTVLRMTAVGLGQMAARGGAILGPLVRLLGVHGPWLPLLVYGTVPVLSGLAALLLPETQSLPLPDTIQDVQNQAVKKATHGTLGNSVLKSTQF
Attribute: IC50

Previously resolved entries follow.
input: Write down IC50 measured for item CC(C)C1Oc2c(C3CCCCC3)cccc2N(CCC(=O)O)C1=O (stereo not drawn)
output: ≥ 3 µM

input: Write down IC50 measured for item CC(C)c1cccc2c1OC(C(C)C)CN2C(=O)/C=C/C(=O)O (stereo not drawn)
output: 0.3 to 3 µM

input: Write down IC50 measured for item Cc1cc(C)c2c(c1)N(CCC(=O)O)C(=O)C(CC(C)C)O2 (stereo not drawn)
output: < 0.3 µM

input: Write down IC50 measured for item CC(C)c1cccc2c1OC(C)(C)C(=O)N2CC(=O)O
output: ≥ 3 µM

input: Write down IC50 measured for item CCC1Oc2c(C(C)C)cccc2N(CC(=O)O)C1=O (stereo not drawn)
output: ≥ 3 µM

# next molecule below
input: Write down IC50 measured for item COC(=O)CN1C(=O)CSc2ccccc21
output: ≥ 3 µM
